The measured values listed here are drawn from the supplement of paper PMC10567573.

B1: PHTF1 (parent)
chain: RVKLISNKGTETDNDPSCVHPIIK

- Variants of: B1
- assay notes: protein stability index of a GFP-peptide fusion (GPS, HEK-293T) (PSI 1-6); higher = more stable;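 further: lentivirally expressed fusions sorted by FACS into six bins by GFP to DsRed ratio, PSI derived from sequencing read proportions per bin multiplied by bin number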
- assay setup: c terminus: a fixed tail appended
For each record, write down the corresponding protein stability index.
Numbers only.

RVKLISNKWTETDNDPSCVHPIIK [G9W] | 2.8

Batch request: protein stability index for each of the following variants.
1. RVKLISNKGTETDNDPSCVHPSIK [I22S]
2. RVKLISNKGTETDDDPSCVHPIIK [N14D]

4.6
4.04

Return reported protein stability index values for all items listed beneath this line.
1. RVKLINNKGTETDNDPSCVHPIIK [S6N]
2. RVKLISNTGTETDNDPSCVHPIIK [K8T]
3. RVKLISNKGTETDNDPSFVHPIIK [C18F]
4. RVKLISNLGTETDNDPSCVHPIIK [K8L]

[4.26, 4.33, 3.79, 3.33]
